- targetOfAssay: UniProtKB Q14432
- Sequence (Q14432 whole entry, the tested form may be a part): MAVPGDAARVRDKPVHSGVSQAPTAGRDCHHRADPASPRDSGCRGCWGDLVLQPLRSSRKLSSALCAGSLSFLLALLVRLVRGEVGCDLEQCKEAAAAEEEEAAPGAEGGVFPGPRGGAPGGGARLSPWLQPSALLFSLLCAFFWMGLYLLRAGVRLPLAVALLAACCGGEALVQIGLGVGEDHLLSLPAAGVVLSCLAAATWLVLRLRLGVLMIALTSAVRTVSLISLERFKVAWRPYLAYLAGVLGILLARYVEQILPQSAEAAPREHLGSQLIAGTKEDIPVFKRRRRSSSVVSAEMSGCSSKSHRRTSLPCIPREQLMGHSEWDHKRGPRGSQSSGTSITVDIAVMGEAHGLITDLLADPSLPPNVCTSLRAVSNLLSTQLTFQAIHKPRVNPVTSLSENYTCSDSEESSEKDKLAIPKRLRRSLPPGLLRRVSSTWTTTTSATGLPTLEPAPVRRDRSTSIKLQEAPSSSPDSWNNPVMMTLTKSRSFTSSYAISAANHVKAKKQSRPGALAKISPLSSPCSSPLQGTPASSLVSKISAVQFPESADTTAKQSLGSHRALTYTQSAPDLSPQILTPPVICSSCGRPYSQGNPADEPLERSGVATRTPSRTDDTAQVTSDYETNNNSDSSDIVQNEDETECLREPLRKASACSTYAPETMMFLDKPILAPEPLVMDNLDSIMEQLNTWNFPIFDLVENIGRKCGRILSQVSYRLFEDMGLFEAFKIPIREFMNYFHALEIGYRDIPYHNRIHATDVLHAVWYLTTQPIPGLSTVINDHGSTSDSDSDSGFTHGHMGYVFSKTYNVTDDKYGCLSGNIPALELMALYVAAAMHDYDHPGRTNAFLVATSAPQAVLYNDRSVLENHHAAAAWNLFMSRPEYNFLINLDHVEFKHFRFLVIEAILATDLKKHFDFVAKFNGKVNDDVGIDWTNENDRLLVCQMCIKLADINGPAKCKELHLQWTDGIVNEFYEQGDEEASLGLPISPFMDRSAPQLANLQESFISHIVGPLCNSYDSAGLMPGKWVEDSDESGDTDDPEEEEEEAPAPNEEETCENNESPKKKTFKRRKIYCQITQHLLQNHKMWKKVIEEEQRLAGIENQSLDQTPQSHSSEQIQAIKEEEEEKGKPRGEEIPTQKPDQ
- protocolText: Inhibition of PDE3A (M1 to Q1141 residues) (unknown origin) using FAM-cAMP as substrate incubated for 45 mins by TR-FRET IMAP assay
pIC50: −log10 of the molar value.
endpoint: pIC50

{"compound": "CNC(=O)[C@@H](NC(=O)c1cc(NC(=O)c2cc(C)cc(C)c2OC)cc(B(O)O)c1)C1CCCCC1", "pIC50": 6.00}
{"compound": "CCNC(=O)N1CCCCC(NC(=O)c2cc(O)cc(NC(=O)c3cc(C)cc(C)c3OC)c2)C1 (centres undefined)", "pIC50": 4.50}
{"compound": "CNC(=O)[C@@H](NC(=O)c1cc(NC(=O)c2cc3c(c(OC)c2)OCC(=O)N3)cc(B(O)O)c1)C1CCCCC1", "pIC50": 6.60}
{"compound": "CNC(=O)[C@@H](NC(=O)c1cc(NC(=O)c2cnc3ccccc3c2)cc(B(O)O)c1)C1CCCCC1", "pIC50": 4.90}
{"compound": "CNC(=O)[C@@H](NC(=O)c1cc(NC(=O)c2cc(C)c3ccccc3n2)cc(B(O)O)c1)C1CCCCC1", "pIC50": 8.30}

1 = COc1ccc2c(OC)cc(C(=O)Nc3cc(B(O)O)cc(C(=O)NCC(C)C)c3)nc2c1
2 = CNC(=O)[C@@H](NC(=O)c1cc(NC(=O)c2cc(F)cc3nccnc23)cc(B(O)O)c1)C1CCCCC1
In: Of the pair 1 and 2 , name the member with the lesser recorded pIC50. Record your answer as the label of the chosen record.
Out: 1
